Known pIC50 of a selection of compounds
- Tested on: U373 glioblastoma cells
- Procedure Summary: Glioblastoma cell invasion through Matrigel matrix (Boyden chambers)
- Type: cell-based
- Applied Conditions: Homo sapiens, U373 MG; U373; 3 independent experiments; 48 hours; read-out: mean IC50 value, invasion through Matrigel matrix
Value format note: pIC50 is -log10 of concentration (mol/L); just state the number.

Before answering, review these 2 worked examples.
GET /values?readout=pIC50&item= COc1cc2ncnc(Nc3cc(Br)c(O)c(Br)c3)c2cc1OC 4.98

What do you get for COc1cc2ncnc(Nc3ccc(O)cc3)c2cc1OC ? 5.15

Switching to the query record.
Would you mind telling me what pIC50 value was observed for COc1cc2ncnc(Nc3ccc(O)c(Br)c3)c2cc1OC ? 5.35

---

- Tested on: U373 human glioblastoma cell line
- Procedure Summary: MTT cytotoxicity assay, U373 glioblastoma cells
- Applied Conditions: Homo sapiens, U373 MG, read-out: IC50 value
Quantity Kind: IC50

For the compound O=c1c(-c2ccc(O)cc2)coc2cc(O)cc(O)c12 [genistein, reference compound] , what IC50 is on record? > 250 µM

From: patent US6552027B2
